# STUDY_TARGET: T1, rat IL-21R expressed on cells (rat)
# T1 construct: whole, on cells
# ASSAY_NAME: cell-based ELISA on CHO cells transiently expressing rat IL-21R; HRP anti-human IgG, A450

>  <BINDER>
AbS (antibody, V domains shown, CDR3 graft, residue limits derived as for m29; also called VHP/VL6; VHPTM/VL6) VH: QVQLQESGPGLVKPSETLSLTCAVSGYSISSGYYWGWIRQPPGKGLEWIGSISHTGNTYYNPPLKSRVTISVDTSKNQFSLKLSSVTAADTAVYYCARGGGISRPEYWGQGTLVTVSS VL: SSELTQDPAVSVALGQTVRITCQGDSLRTYYASWYQQKPGQAPVLVIYGKHKRPSGIPDRFSGSSSGNTASLTITGAQAEDEADYYCMSRSIWGNPHVLFGGGTQLTVL

>  <EC50 (read off the curve)>
~1 nM

$$$$
>  <BINDER>
AbR (antibody, human IgG1, V domains shown, CDR3 graft, residue limits derived as for m29; also called VH3/VL18; VH3DM/VL18) VH: QVQLQESGPGLVKPSETLSLTCAVSGYSISSGYYWGWIRQPPGKGLEWIGSISHTGNTYYNPPLKSRVTISVDTSKNQFSLKLSSVTAADTAVYYCARFMGFGRPEYWGQGTLVTVSS VL: SSELTQDPAVSVALGQTVRITCQGDSLRTYYASWYQQKPGQAPVLVIYGKHKRPSGIPDRFSGSSSGNTASLTITGAQAEDEADYYCVTRSVKGNPHVLFGGGTQLTVL

>  <EC50 (read off the curve)>
~0.7 nM

$$$$
>  <BINDER>
AbJ (antibody, IgG1, V domains shown, As for AbA: IgG1/lambda, CDR3 graft, residue limits derived; also called VH3/VLP) VH: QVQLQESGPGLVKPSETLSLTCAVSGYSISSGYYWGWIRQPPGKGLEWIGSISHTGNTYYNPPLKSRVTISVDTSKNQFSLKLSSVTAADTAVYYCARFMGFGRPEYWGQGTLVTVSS VL: SSELTQDPAVSVALGQTVRITCQGDSLRTYYASWYQQKPGQAPVLVIYGKHKRPSGIPDRFSGSSSGNTASLTITGAQAEDEADYYCNSRDSSGNPHVLFGGGTQLTVL

>  <EC50 (read off the curve)>
~0.4 nM

$$$$
